PROTOCOL_CONDITIONS: in acetone, 298.15 K
OBSERVATION_TYPE: solubility (mole fraction)
When you answer, write just the number.

[ask] Specify solubility (mole fraction) for O=[N+]([O-])c1c(Cl)cc(Cl)c([N+](=O)[O-])c1Cl and stop.
[reply] 0.13

---

PROTOCOL_CONDITIONS: in methyl acetate, 318.15 K
OBSERVATION_TYPE: solubility (mole fraction)
Lab note: record the figure alone, no unit after it.

[ask] For the molecule O=[N+]([O-])c1c(Cl)cc(Cl)c([N+](=O)[O-])c1Cl , give its measured solubility (mole fraction) value.
[reply] 0.19

---

PROTOCOL_CONDITIONS: in chloroform, 283.15 K
OBSERVATION_TYPE: solubility (mole fraction)

[ask] Respond only with solubility (mole fraction) recorded for O=[N+]([O-])c1c(Cl)cc(Cl)c([N+](=O)[O-])c1Cl
[reply] 0.0892
